system: HCC2279; assay: area under confluence curve of compound monotherapy; compare to DMSO control AUC of the same experiment (AUC (confluence x time, arbitrary)); conditions: 1000 nM; DMSO control AUC in same experiment: 14404
The following compounds are listed with their measured area under confluence curve values.

Molecule smiles: O=C(c1cc(Cc2n[nH]c(=O)c3ccccc23)ccc1F)N1CCN(C(=O)C2CC2)CC1
area under confluence curve: 14700
--
Molecule smiles: Cc1nc(N2CCC3(CC2)CO[C@@H](C)[C@H]3N)c(CO)nc1-c1cccc(Cl)c1Cl
area under confluence curve: 12100
--
Molecule smiles: COc1nn(C)cc1Nc1nccc(-c2c[nH]c3c(NC(=O)[C@@H](C)N4CCN(C)CC4)cccc23)n1
area under confluence curve: 15500
--
Molecule smiles: C[C@@H](Oc1cc(-c2cnn(C3CCNCC3)c2)cnc1N)c1c(Cl)ccc(F)c1Cl
area under confluence curve: 13900
